// provenance: patent US20080207522A1

# System: Salmonella enterica ssp. Typhimurium
# conditions_used: Table 6
# Description: Minimal inhibitory concentration (MIC) determination. The MICs of the peptides were measured using a modified broth microdilution method in Mueller Hinton (MH) medium. Wu et al., J. Biol. Chem. 274: 29-35, 1999. Briefly, the peptides were dissolved and stored in glass vials. The assay was performed in sterile 96-well polypropylene microtitre plates were used. […]
measurement_name: MIC S. Typhim.

Record request: MIC S. Typhim. value, item Bac118: peptide of Table 6 (substitution peptides and truncation variants of Bac2A); sequence in Table 1 (RIVVIRV)
n.s.

Record request: MIC S. Typhim. value, item Bac241: peptide of Table 6 (substitution peptides and truncation variants of Bac2A); sequence in Table 1 (RLERIVVIRVAR)
n.s.

Record request: MIC S. Typhim. value, item Bac109: peptide of Table 6 (substitution peptides and truncation variants of Bac2A); sequence in Table 1 (RIVVIRVAR)
n.s.

Record request: MIC S. Typhim. value, item Bac112: peptide of Table 6 (substitution peptides and truncation variants of Bac2A); sequence in Table 1 (ARIVVIRV)
n.s.

Record request: MIC S. Typhim. value, item Bac263: peptide of Table 6 (substitution peptides and truncation variants of Bac2A); sequence in Table 1 (RLAGIVVIRVAR)
n.s.

Shifting focus to the substance that follows.
Record request: MIC S. Typhim. value, item Bac297: peptide of Table 6 (substitution peptides and truncation variants of Bac2A); sequence in Table 1 (RLARICVIRVAR)
n.s.
